Where these numbers come from: patent EP4659811A1

- Measured on: T1, VP1 pentamer of BKV genotype IV (recombinant) (BK virus genotype IV, UniProt P14996 30-300)
- T1 construct: also called GIV; VP1 BKV subtype IV; not shown: N-terminal His-tag of pESPRIT002; C-terminal biotin acceptor peptide (BAP) of pESPRIT002
- Test protocol: ELISA, coated VP1 pentamer
Observation type: EC50 (µg/mL)
Numbers only; they are read as µg/mL.

*Q* GET /values?readout=EC50&item= antibody G8P7 (antibody, V domains shown) VH: QLQLQESGPGLVQPSETLSLTCTVSGGYISTSSYYWGWIRQPPGKGLEWIGSIEYSGSTYYNPSLKSRVTISVDTSKNQFSLKLSSVTAADTAVYYCASANSKYYDSGGYYAPGALDLWGQGTMVTVSS VL: EIVMTQSPATLSVSPGERATLSCRASQSVSSHLAWYQHKRGQAPRLLIYAASSRATGIPARFSGRGSGTEFTLTISSLQSEDFAVYYCQQYNNWPPGYSFGQGTKLEIK
*A* 5

*Q* Field request: EC50 | item: antibody G7P7 (antibody, V domains shown) VH: QVQLQESGPGLVRPSQTLSLTCTVSGGSMTSGSYYWSWIRQPAEKGLEWIGRIYTSGRTDYNPSLKSRVAMSIDTSKNQFSLRLTSVTAADTAVYYCARWGDSSAYYYVGDPWGRGTPVTVSS VL: DIQMTQSPSSLSASIGDRVTITCRASQNINTYLYWYQQKPGKAPQLLIYAASNLQTGAPSRFSGSGSGTDFTLTISSLQPADFATYYCQQSFSLPHTFGQGTKLEIK
*A* 0.04

*Q* Recorded EC50 of antibody B2P8 (antibody, V domains shown) VH: QVQLQESGPGLVKPSETLSLTCTVSGGSIRNSYWSWIRQPPGKGLEWIGYIYYTGTTNSNPSLKSRVTISVHMSQNQISLKLNSVTPADTAVYYCAQGGGSGDLHYWGQGTLVTVSS VL: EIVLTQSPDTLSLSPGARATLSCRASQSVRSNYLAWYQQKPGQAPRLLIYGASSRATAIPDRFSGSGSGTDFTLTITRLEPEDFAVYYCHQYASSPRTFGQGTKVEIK , please.
*A* 12
